- experimental system: T1, DGI-2 polypeptide (UniProt Q15004 1-111, limits assumed)
- T1 construct: Soluble recombinant protein coated at 500 ng/well; vector tag of pIVEX2.3-MCS not described for this construct; also called KIAA0101
- T1 sequence (looked up): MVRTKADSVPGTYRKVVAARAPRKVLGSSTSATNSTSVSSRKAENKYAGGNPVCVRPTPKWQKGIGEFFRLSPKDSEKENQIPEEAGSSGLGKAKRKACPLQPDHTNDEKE
- assay procedure: phage ELISA
readout name: DGI-2 (OD)

1. RSYPRLCKQKGGVIGRMLPGAAAGAPVPYPDPLEPRP [DGI-2-20F-PP-B2]; 3.3
2. EGQRVVFLFGALVAGLCWRDRAAAGAPVPYPDPLEPRP [DGI-2-20F-PP-F3]; 2.6
3. RTLFINGGCCGKGSGGGRPLAAAGAPVPYPDPLEPRP [DGI-2-20F-PP-G1]; 1.4
4. VVGYAQGDGLEGGLGSSRDGSAAAGAPVPYPDPLEPRP [DGI-2-20F-PP-D8]; 2.3
5. RERWGTAWNLWTEGVVDVRPAAAGAPVPYPDPLEPRP [DGI-2-20F-3-B5]; 6.1
6. VLGADAGMIWFMDGCGIRCRAAAGAPVPYPDPLEPRP [DGI-2-20R-4-E6]; 7
7. DGRGWGAMWMRWAEGLGADIAAAGAPVPYPDPLEPRP [DGI-2-20R-4-G114]; 12.9
8. QLDCLVWGLPGLRCDRPLEQAAAGAPVPYPDPLEPRP [DGI-2-20R-3-B10]; 7.8
9. GWGCSVPGILCVGGHRQGGGAAAGAPVPYPDPLEPRP [DGI-2-20R-3-B11]; 5.9
10. DRHRAFVAEGLDGFRHSTGVAAAGAPVPYPDPLEPRP [DGI-2-20F-PP-D4]; 2.6
11. RRFVRCSVPVALRSAVPVSVAAAGAPVPYPDPLEPRP [DGI-2-20F-PP-A10]; 2.4
12. RGSLLLTLPRLSGAVGTAYGAAAGAPVPYPDPLEPRP [DGI-2-20F-PP-B3]; 3.4
13. MGADTCMGGKMPFDQMFGAVAAAGAPVPYPDPLEPRP [DGI-2-20F-PP-E10]; 2
